Hello, the source for this data is patent US10081624B2, in case you need it.

- SYSTEM UNDER TEST: HDAC6 enzyme (Homo sapiens)
- Construct: prepared by transducing full length HDAC1 and HDAC6 genes into Sf-9 insect cells; GST; purchased SignalChem; host or cells: Sf-9 insect cells
- ASSAY PROTOCOL: HDAC6 enzyme inhibitory assay (HDAC-Glo I/II Assay kit)
- Assay type: biochemical
- MEASUREMENT CONDITIONS: 1 μM test compound; read-out: HDAC6 inhibitory rate (%) (1 μM)
Response key: True means inhibition at 1 µM >= 90%; False means inhibition at 1 µM < 90%.

Determine whether this molecule has inhibition at 1 µM no lower than 90%: `Cc1ncsc1C(=O)N1CCOC[C@@H]1CNC(=O)c1ccc(-c2noc(C(F)(F)F)n2)cn1`
True

Determine whether this molecule has inhibition at 1 µM no lower than 90%: `N#Cc1cc(F)cc(C(=O)N2CCOC[C@@H]2CNC(=O)c2ccc(-c3noc(C(F)(F)F)n3)cc2)c1`
True

Determine whether this molecule has inhibition at 1 µM no lower than 90%: CCc1noc(C)c1C(=O)N1CCOCC1CNC(=O)c1ccc(-c2noc(C(F)(F)F)n2)cc1 (stereo in doubt)
True

Determine whether this molecule has inhibition at 1 µM no lower than 90%: `Cn1cc(C(=O)N2CCOC[C@H]2CNC(=O)c2ccc(-c3noc(C(F)(F)F)n3)cc2)cn1`
False

Determine whether this molecule has inhibition at 1 µM no lower than 90%: `Cn1nccc1C(=O)N1CCOC[C@@H]1CNC(=O)c1ccc(-c2noc(C(F)(F)F)n2)cc1`
True

Determine whether this molecule has inhibition at 1 µM no lower than 90%: `O=C(NC[C@H]1COCCN1C(=O)c1ccnn1CCO)c1ccc(-c2noc(C(F)(F)F)n2)cc1`
True

Determine whether this molecule has inhibition at 1 µM no lower than 90%: Cn1nccc1C(=O)N1CCOCC1CNC(=O)c1ccc(-c2noc(C(F)(F)F)n2)s1 (stereo not drawn)
True

Determine whether this molecule has inhibition at 1 µM no lower than 90%: `O=C(NC[C@H]1COCCN1C(=O)N1CC[C@H](O)C1)c1ccc(-c2noc(C(F)(F)F)n2)cc1`
True

Determine whether this molecule has inhibition at 1 µM no lower than 90%: O=C(NC[C@H]1COCCN1C(=O)N1CCC(c2ccncc2)C1)c1ccc(-c2noc(C(F)(F)F)n2)cc1 (stereo partly drawn)
False

Determine whether this molecule has inhibition at 1 µM no lower than 90%: `O=C(NC[C@H]1COCCN1C(=O)N1CCCC(F)(F)C1)c1ccc(-c2noc(C(F)(F)F)n2)cc1`
True

Determine whether this molecule has inhibition at 1 µM no lower than 90%: O=C(NCC1COCCN1C(=O)c1ccncc1)c1ccc(-c2noc(C(F)(F)F)n2)cc1 (stereo not drawn) [Example 14]
True

Determine whether this molecule has inhibition at 1 µM no lower than 90%: `Cn1nccc1C(=O)N1CCOC[C@@H]1CNC(=O)c1ccc(-c2noc(C(F)(F)F)n2)cn1`
True

Determine whether this molecule has inhibition at 1 µM no lower than 90%: O=C(NCC1Cc2ccccc2N1C(=O)c1ccccc1)c1ccc(-c2noc(C(F)(F)F)n2)cc1 (stereo not drawn)
True

* * *

Provide the recorded inhibition at 1 µM for the entries that follow.
- SYSTEM UNDER TEST: HDAC6 enzyme (Homo sapiens, UniProt Q9UBN7)
- Construct: prepared by transducing full length HDAC1 and HDAC6 genes into Sf-9 insect cells; GST; purchased SignalChem; host or cells: Sf-9 insect cells
- Sequence (Q9UBN7 whole entry): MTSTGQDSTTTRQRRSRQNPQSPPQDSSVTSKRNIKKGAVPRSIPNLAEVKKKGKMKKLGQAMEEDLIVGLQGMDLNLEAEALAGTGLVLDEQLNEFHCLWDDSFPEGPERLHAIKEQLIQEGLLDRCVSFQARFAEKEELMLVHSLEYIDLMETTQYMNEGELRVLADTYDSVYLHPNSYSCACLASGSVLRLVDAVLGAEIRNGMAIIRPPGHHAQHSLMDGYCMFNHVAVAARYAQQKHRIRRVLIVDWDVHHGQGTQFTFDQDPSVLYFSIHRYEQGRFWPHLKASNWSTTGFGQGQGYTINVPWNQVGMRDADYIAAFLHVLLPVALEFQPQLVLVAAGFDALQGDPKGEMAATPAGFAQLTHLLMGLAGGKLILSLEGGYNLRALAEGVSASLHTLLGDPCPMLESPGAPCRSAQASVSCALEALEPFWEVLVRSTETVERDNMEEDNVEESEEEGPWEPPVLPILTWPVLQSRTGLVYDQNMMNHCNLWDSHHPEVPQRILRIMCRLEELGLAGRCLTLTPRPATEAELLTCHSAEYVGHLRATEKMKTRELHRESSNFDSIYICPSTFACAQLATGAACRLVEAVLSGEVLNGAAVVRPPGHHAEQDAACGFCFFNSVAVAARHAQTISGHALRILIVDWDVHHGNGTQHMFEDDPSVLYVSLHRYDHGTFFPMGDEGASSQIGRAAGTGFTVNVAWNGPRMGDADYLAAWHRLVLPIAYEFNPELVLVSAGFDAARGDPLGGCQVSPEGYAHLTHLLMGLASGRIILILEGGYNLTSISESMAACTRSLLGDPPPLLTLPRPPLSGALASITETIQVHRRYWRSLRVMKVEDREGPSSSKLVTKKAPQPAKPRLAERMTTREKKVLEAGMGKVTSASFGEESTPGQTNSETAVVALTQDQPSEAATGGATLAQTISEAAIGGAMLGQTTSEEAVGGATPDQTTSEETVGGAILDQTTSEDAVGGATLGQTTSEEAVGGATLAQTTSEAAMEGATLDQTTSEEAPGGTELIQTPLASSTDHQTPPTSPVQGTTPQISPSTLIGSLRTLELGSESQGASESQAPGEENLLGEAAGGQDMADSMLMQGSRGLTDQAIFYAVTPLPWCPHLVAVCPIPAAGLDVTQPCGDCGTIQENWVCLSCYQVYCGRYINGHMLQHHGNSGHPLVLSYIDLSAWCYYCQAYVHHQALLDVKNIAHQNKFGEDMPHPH
- ASSAY PROTOCOL: HDAC6 enzyme inhibitory assay (HDAC-Glo I/II Assay kit)
- Assay type: biochemical
- MEASUREMENT CONDITIONS: 1 μM test compound; read-out: HDAC6 inhibitory rate (%) (1 μM)
Answer by giving the amount and then stating its unit.

Query inhibition at 1 µM for O=C(NCC1COCCN1C(=O)C(F)(F)c1ccccc1)c1ccc(-c2noc(C(F)(F)F)n2)cc1 (stereo in doubt)
98%

Query inhibition at 1 µM for Cc1nocc1C(=O)N1CCOCC1CNC(=O)c1ccc(-c2noc(C(F)(F)F)n2)cc1 (stereo in doubt)
99%

Query inhibition at 1 µM for O=C(NCC1COCCN1C(=O)c1ccncc1)c1ccc(-c2noc(C(F)(F)F)n2)s1 (stereo not drawn)
95%

Query inhibition at 1 µM for `C[C@@H]1CCCN1C(=O)N1CCOC[C@@H]1CNC(=O)c1ccc(-c2noc(C(F)(F)F)n2)cc1`
85%

Query inhibition at 1 µM for `Cn1nc2ccccc2c1C(=O)N1CCOC[C@@H]1CNC(=O)c1ccc(-c2noc(C(F)(F)F)n2)cn1`
99%

Query inhibition at 1 µM for Cc1nnsc1C(=O)N1CCOCC1CNC(=O)c1ccc(-c2noc(C(F)(F)F)n2)s1 (stereo not drawn)
98%

Query inhibition at 1 µM for Cc1cc(-c2noc(C(F)(F)F)n2)ccc1C(=O)NCC1COCCN1C(=O)c1ccccc1 (stereo not drawn)
24%

Query inhibition at 1 µM for O=C(NC[C@H]1COCCN1C(=O)C1CCc2ccccc2O1)c1ccc(-c2noc(C(F)(F)F)n2)cn1 (stereo partly drawn)
94%

Query inhibition at 1 µM for `O=C(NC[C@H]1COCCN1C(=O)c1cc(Cl)cc(Cl)c1)c1ccc(-c2noc(C(F)(F)F)n2)cn1`
97%

Query inhibition at 1 µM for `COC[C@H]1CCCN1C(=O)N1CCOC[C@@H]1CNC(=O)c1ccc(-c2noc(C(F)(F)F)n2)cc1`
99%

Query inhibition at 1 µM for `O=C(NC[C@H]1COCCN1C(=O)C1CCCC1)c1ccc(-c2noc(C(F)(F)F)n2)cc1`
98%

Query inhibition at 1 µM for `O=C(NC[C@@H]1COCCN1C(=O)c1ccno1)c1ccc(-c2noc(C(F)(F)F)n2)cc1`
96%

Query inhibition at 1 µM for Cn1cc(C(=O)N2CCOCC2CNC(=O)c2ccc(-c3noc(C(F)(F)F)n3)s2)cn1 (stereo not drawn)
78%

Query inhibition at 1 µM for `Cn1nc2ccccc2c1C(=O)N1CCOC[C@@H]1CNC(=O)c1ccc(-c2noc(C(F)(F)F)n2)cc1`
101%

Query inhibition at 1 µM for `O=C(NC[C@@H]1COCCN1C(=O)c1cc(Cl)cc(Cl)c1)c1ccc(-c2noc(C(F)(F)F)n2)cn1`
95%
